# Target desc: Yap3 (UniProt P38749)
# Sequence: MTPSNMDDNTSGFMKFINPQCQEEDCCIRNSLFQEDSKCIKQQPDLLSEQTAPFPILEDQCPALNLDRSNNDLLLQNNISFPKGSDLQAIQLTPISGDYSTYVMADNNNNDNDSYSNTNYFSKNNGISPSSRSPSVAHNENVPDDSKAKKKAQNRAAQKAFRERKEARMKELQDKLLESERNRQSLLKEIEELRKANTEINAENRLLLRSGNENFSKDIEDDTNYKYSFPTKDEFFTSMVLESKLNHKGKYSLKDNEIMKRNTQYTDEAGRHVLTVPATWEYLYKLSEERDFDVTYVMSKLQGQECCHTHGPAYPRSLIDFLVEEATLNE
# Assay name: PBM E-score (8-mer binding enrichment) (E-score (-0.5 to 0.5)); higher = stronger / more preferred TF binding
# Recorded conditions: protein concentration: 100 nM; construct: GST-full length
The full ranking holds about 33,000 sequences; the median of “E-score (-0.5 to 0.5)” is about -0.0034, and the highest 2% start at about 0.25. This excerpt belongs to a sample that is enriched for the highest values.
Measure: PBM E-score
Format: numeric value only, no unit, no commentary.

Examples with their reported PBM E-score follow.
# Sequence string, PBM E-score
measured = [
    ("ACAATTAT", 0.248),
    ("CACTATAA", -0.00697),
    ("ATAATTAT", 0.302),
]

Recall and state the measured PBM E-score for ACAGACAA .
0.285

Recall and state the measured PBM E-score for TACTATAA .
0.266

Recall and state the measured PBM E-score for CGGTAATA .
0.202

The reported numbers originate from the supplement of paper PMC3334620.
